Please go through the items and note down their pEC50.
# System: HBV rcDNA in HepDE19 cells
# test: HepDE19 assay with bDNA quantitation of HBV rcDNA
# Assay type: cell-based, hepatitis B virus
# experimental_parameters: Hepatitis B virus, HepDE19, HepDE19 assay, inhibition of rcDNA formation, bDNA quantitation; read-out: DE-19bDNA EC50
One number for each entry, as −log10 of the molar value.

The examples below pair each entry with its known result.
# molecule, measured_result
measured = [
    ("CN(C(=O)C1CN(c2csc(Cl)c2)C1)[C@@H]1COCc2[nH]c(=O)c3cc(F)c(F)cc3c21", 6.31),
    ("O=C(N[C@@H]1COCc2[nH]c(=O)c3cc(F)c(F)cc3c21)c1cc2c(F)cc(F)cc2[nH]1", 6.60),
    ("CN(C(=O)c1cc2c(Br)cncc2[nH]1)[C@@H]1COCc2[nH]c(=O)c3cc(F)c(F)cc3c21", 7.52),
    ("CN(C(=O)c1ccc2scnc2c1)C1CNCc2[nH]c(=O)c3cc(F)c(F)cc3c21 (single isomer, unassigned)", 5.70),
    ("CN(C(=O)C1CN(c2ccsc2)C1)[C@@H]1COCc2[nH]c(=O)c3cc(F)c(F)cc3c21", 6.54),
]

Would you be so kind as to report pEC50 for each listed record?
1. [2H][C@@]1(N(C(=O)c2cc3cc(F)c(F)cc3[nH]2)[13C]([2H])([2H])[2H])COCc2[nH]c(=O)c3cc(F)c(F)cc3c21
2. CN(C(=O)C1(O)Cc2cc(F)c(F)cc2C1)[C@@H]1COCc2[nH]c(=O)c3cc(F)c(F)cc3c21
3. CN(C(=O)c1cc(-c2ccc(F)cc2)n[nH]1)[C@@H]1COCc2[nH]c(=O)c3cc(F)c(F)cc3c21
4. CN(C(=O)c1cn2cc(Cl)ccc2n1)[C@@H]1COCc2[nH]c(=O)c3cc(F)ccc3c21

Result ::
[8.10, 5.71, 4.68, 5.39]

----------
Provide the recorded EC50 for the entries that follow.
# System: HBV rcDNA in HepDE19 cells
# test: HepDE19 assay with bDNA quantitation of HBV rcDNA
# Type: cell-based, hepatitis B virus
# experimental_parameters: Hepatitis B virus, HepDE19, HepDE19 assay, inhibition of rcDNA formation, bDNA quantitation; read-out: DE-19bDNA EC50
Give bare numbers, in nM.

Examples with their reported EC50 follow.
# compound, assay_system, measured_result
data = [
    ("CN(C(=O)c1ccc(-c2ccc(F)cc2)cc1)[C@@H]1COCc2[nH]c(=O)c3cc(F)c(F)cc3c21 [Compound 250]", "HBV rcDNA in HepDE19 cells", 8100),
    ("CN(C(=O)c1ccc(S(C)(=O)=O)cc1)[C@@H]1COCc2[nH]c(=O)c3cc(F)c(F)cc3c21 [Compound 295]", "HBV rcDNA in HepDE19 cells", 350),
    ("CN(C(=O)c1cc2c(C(F)F)cc(F)cc2[nH]1)[C@@H]1CCCc2[nH]c(=O)c3cc(F)c(F)cc3c21 [Compound 483]", "HBV rcDNA in HepDE19 cells", 10),
    ("CN(C(=O)c1ccc2[nH]ncc2c1)[C@@H]1COCc2[nH]c(=O)c3cc(F)c(F)cc3c21 [Compound 429]", "HBV rcDNA in HepDE19 cells", 980),
    ("CN([C@@H]1COCc2[nH]c(=O)c3cc(F)c(F)cc3c21)S(=O)(=O)c1cccc(Cl)c1 [Compound 144]", "HBV rcDNA in HepDE19 cells", 12000),
    ("CN(C(=O)c1cc2cc(F)c(F)cc2[nH]1)[C@@H]1CCC(O)c2[nH]c(=O)c3cc(F)c(F)cc3c21 (stereo partly shown) [Compound 503]", "HBV rcDNA in HepDE19 cells", 20),
]

Would you mind giving EC50 for every compound in the list below?
1. O=C(N[C@@H]1COCc2[nH]c(=O)c3cc(F)c(F)cc3c21)c1cc2cc(F)c(F)cc2[nH]1 [Compound 156]
2. CN(C(=O)c1ccc2cccnc2c1)[C@@H]1COCc2[nH]c(=O)c3cc(F)c(F)cc3c21 [Compound 66]

Result ::
[490, 2300]

Please report EC50 for every entry that follows.
1. CN(C(=O)C1Cc2ccccc21)[C@@H]1COCc2[nH]c(=O)c3cc(F)c(F)cc3c21 (stereo partly shown) [Compound 269]
2. CN(C(=O)c1cc2cc(F)c(C(F)F)cc2[nH]1)[C@@H]1COCc2[nH]c(=O)c3cc(F)c(F)cc3c21 [Compound 212]
3. CN(C(=O)c1cnc(C(F)(F)F)c(Cl)c1)[C@@H]1COCc2[nH]c(=O)c3cc(F)ccc3c21 (single isomer, unassigned) [Compound 379]
4. CN(C(=O)c1cc2cc(C(F)(F)F)ncc2[nH]1)[C@@H]1COCc2[nH]c(=O)c3cc(F)c(F)cc3c21 [Compound 251]
5. CN(C(=O)C(N)c1ccc(Cl)cc1)[C@@H]1COCc2[nH]c(=O)c3cc(F)c(F)cc3c21 (single isomer, unassigned) [Compound 199]
6. COC1OC[C@@H](N(C)C(=O)c2cc3cc(F)c(F)cc3[nH]2)c2c1[nH]c(=O)c1cc(F)c(F)cc21 (stereo partly shown) [Compound 320]

Result ::
1: 18600; 2: 10; 3: 170; 4: 230; 5: 14700; 6: 30

I'm hoping you can list EC50 for every compound here, please.
1. CN(C(=O)c1ccc2c(cnn2C(F)F)c1)[C@@H]1COCc2[nH]c(=O)c3cc(F)c(F)cc3c21 [Compound 437]
2. CN(C(=O)c1ccc2scnc2c1)[C@@H]1COCc2[nH]c(=O)c3cc(F)c(F)cc3c21 [Compound 427]
3. CN(C(=O)c1ccc2c(c1)c(Cl)nn2C)[C@@H]1COCc2[nH]c(=O)c3cc(F)c(F)cc3c21 [Compound 415]
4. CN(C(=O)c1cc2cc(F)c(F)cc2[nH]1)[C@@H]1CCCc2[nH]c(=O)c3cc(F)c(F)cc3c21 [Compound 481]
5. CN(C(=O)c1ccc2cn[nH]c2c1)C1COCc2[nH]c(=O)c3cc(F)ccc3c21 (single isomer, unassigned) [Compound 469]
6. CN(C(=O)c1cc2c(NS(C)(=O)=O)cc(F)cc2[nH]1)[C@@H]1COCc2[nH]c(=O)c3cc(F)c(F)cc3c21 [Compound 362]

Result ::
5
170
60
10
2200
14000

Go through the items and report each one's EC50.
1. CN(C(=O)c1cc2cc(F)c(C(F)F)cc2[nH]1)[C@@H]1CCCc2[nH]c(=O)c3cc(F)ccc3c21 [Compound 479]
2. CN(C(=O)c1cc2cc(C(F)(F)F)cnc2[nH]1)[C@@H]1COCc2[nH]c(=O)c3cc(F)c(F)cc3c21 [Compound 214]
3. CN(C(=O)c1cc2nc(F)ccc2[nH]1)[C@@H]1COCc2[nH]c(=O)c3cc(F)c(F)cc3c21 [Compound 232]
4. CN(C(=O)c1cc(C(F)(F)F)n[nH]1)[C@@H]1COCc2[nH]c(=O)c3cc(F)c(F)cc3c21 [Compound 125]
5. CN(C(=O)c1ccc(F)c(C(F)F)c1)[C@@H]1COCc2[nH]c(=O)c3cc(F)c(F)cc3c21 [Compound 109]
6. CN(C(=O)c1cc2sc(Cl)cc2[nH]1)[C@@H]1COC(O)c2[nH]c(=O)c3cc(F)c(F)cc3c21 (stereo partly shown) [Compound 487]
7. O=C(N[C@@H]1COCc2[nH]c(=O)c3cc(F)c(F)cc3c21)c1ccc(Cl)c(F)c1 [Compound 159]

Result ::
40
1000
70
150
20
20
660

Query :: Give the measured EC50 of CN(C(=O)c1cc2sccc2[nH]1)[C@@H]1COCc2[nH]c(=O)c3cc(F)c(F)cc3c21 [Compound 278] .
Result :: 20
